Experiment: Inhibitory activity was determined against Escherichia coli beta galactosidase
# IC50 annotations

molecule="OCC1(O)C(O)C(O)C2N=C(Nc3ccccc3)OC21 (configuration not stated)" reported_endpoint=IC50 data_value="> 300 µM"

Problem: Any idea what IC50 was measured for OCC1C(O)C(O)C2OC(Nc3ccccc3)=NC12 (configuration not stated) ?
Result: > 300 µM

----------
Assay: Inhibitory activity was determined against bovine liver beta galactosidase
# IC50 annotations
Your answer is read as µM, so omit the unit and give the number.

Problem: Any idea what IC50 was measured for OCC1(O)C(O)C(O)C2N=C(Nc3ccccc3)OC21 (configuration not stated) ?
Result: 153

Problem: Same question, OCC1C(O)C(O)C2OC(Nc3ccccc3)=NC12 (configuration not stated) this time
Result: 3
